# self-splicing fitness (ln) values compiled below
assay: self-splicing fitness, log relative to wild type (ln ratio); higher = more splicing; Tetrahymena group I intron in knt gene, E. coli kanamycin selection, DiMSum; sequences stand for … in CUCUCU…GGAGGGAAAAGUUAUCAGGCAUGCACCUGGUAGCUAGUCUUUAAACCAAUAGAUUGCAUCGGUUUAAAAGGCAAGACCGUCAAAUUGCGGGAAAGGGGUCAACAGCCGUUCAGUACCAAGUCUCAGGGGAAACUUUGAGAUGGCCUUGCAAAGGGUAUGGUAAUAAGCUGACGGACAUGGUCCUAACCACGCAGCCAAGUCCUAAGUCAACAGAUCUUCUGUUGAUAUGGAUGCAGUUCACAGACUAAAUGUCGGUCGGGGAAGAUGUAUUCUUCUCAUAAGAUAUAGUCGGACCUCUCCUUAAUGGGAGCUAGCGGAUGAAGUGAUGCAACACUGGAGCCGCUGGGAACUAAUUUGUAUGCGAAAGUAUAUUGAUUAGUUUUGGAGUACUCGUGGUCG; details: 30 °C;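 further: selection with 25 µg/mL kanamycin versus none on LB agar overnight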
Lab note: jot down the number only; don't add units.

Known results for sequences:
# SEQ_STRING, self-splicing fitness (ln)
measured = [
    ("CAAUAGCAAUAUUACGGAUG", -1.51),
    ("UCCGAGCAAUAUUACGGACC", -2.53),
    ("CUAUAGCAAUAUUACGUGAA", -4.01),
    ("AUACAGCAAUAUUACGAGAU", -3.35),
    ("CAUGAGCAAUAUUACGCGGA", -2.6),
]

Measured self-splicing fitness (ln), `GUGUAGCAAUAUUACGCGAG` : -3.67

Measured self-splicing fitness (ln), `UCCGAGCAAUAUUACGUACC` : -2.2

Measured self-splicing fitness (ln), `UGGCAGCAAUAUUACGUUCU` : 0.076

###

# self-splicing fitness (ln) values compiled below
assay: self-splicing fitness, log relative to wild type (ln ratio); higher = more splicing; Tetrahymena group I intron in knt gene, E. coli kanamycin selection, DiMSum; sequences stand for … in CUCUCU…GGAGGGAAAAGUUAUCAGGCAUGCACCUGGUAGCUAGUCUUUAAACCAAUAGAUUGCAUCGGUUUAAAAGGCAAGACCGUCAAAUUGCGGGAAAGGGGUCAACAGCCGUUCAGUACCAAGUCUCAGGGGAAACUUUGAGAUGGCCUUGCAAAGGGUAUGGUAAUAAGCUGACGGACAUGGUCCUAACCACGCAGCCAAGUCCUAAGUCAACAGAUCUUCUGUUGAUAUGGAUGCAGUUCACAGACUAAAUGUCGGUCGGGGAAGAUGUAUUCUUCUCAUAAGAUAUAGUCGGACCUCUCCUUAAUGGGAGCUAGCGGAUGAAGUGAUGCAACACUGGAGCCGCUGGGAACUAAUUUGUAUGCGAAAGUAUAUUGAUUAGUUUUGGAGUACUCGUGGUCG; conditions: 37 °C

# SEQ_STRING, RESULT
measured = [
    ("UCGUAGCAAUAUUACGUUUU", -3.25),
]

Measured self-splicing fitness (ln), `AAAUAGCAAUAUUACGCGAC` : -1.03

###

test: self-splicing fitness, log relative to wild type (ln ratio); higher = more splicing; Tetrahymena group I intron in knt gene, E. coli kanamycin selection, DiMSum; sequences stand for … in CUCUCU…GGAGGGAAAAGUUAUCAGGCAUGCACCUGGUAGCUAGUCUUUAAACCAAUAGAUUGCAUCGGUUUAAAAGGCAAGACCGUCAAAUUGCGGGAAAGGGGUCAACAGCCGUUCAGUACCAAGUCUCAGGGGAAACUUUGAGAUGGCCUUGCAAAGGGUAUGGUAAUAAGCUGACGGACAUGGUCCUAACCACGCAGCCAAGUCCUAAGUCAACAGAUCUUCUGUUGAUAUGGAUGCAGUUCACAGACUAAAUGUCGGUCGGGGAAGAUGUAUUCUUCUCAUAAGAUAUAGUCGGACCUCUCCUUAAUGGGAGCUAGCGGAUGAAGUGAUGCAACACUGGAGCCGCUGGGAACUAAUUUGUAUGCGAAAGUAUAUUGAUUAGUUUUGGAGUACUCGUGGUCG; conditions: 30 °C
PARAMETER: self-splicing fitness (ln)
Lab note: jot down the number only; don't add units.

Known results for sequences:
# SEQ_STRING, PARAMETER, QUANTITATIVE_READOUT
measured = [
    ("UAGGAGCAAUAUUACGUAAC", "self-splicing fitness (ln)", -4.94),
    ("AAAUAGCAAUAUUACGUAUU", "self-splicing fitness (ln)", -2.56),
    ("CUUAAGCAAUAUUACGAAGU", "self-splicing fitness (ln)", -2.9),
]

Measured self-splicing fitness (ln), `CCACAGCAAUAUUACGUUCC` : -4.24

Measured self-splicing fitness (ln), `GACUAGCAAUAUUACGUGUG` : -1.12

Measured self-splicing fitness (ln), `UGUCAGCAAUAUUACGUAUG` : -0.239

Measured self-splicing fitness (ln), `GACGAGCAAUAUUACGGGUG` : -4.16

Measured self-splicing fitness (ln), `AUAGAGCAAUAUUACGACCC` : -2.56

Measured self-splicing fitness (ln), `GAUCAGCAAUAUUACGCACC` : -0.91

Measured self-splicing fitness (ln), `UUGAAGCAAUAUUACGGGCU` : -3.02

Measured self-splicing fitness (ln), `CUCGAGCAAUAUUACGAACU` : -3.1

Measured self-splicing fitness (ln), `UCGUAGCAAUAUUACGUGUG` : -2.3

Measured self-splicing fitness (ln), `UGGCAGCAAUAUUACGGGUC` : -3.28

Measured self-splicing fitness (ln), `AGUUAGCAAUAUUACGUCAU` : -2.48

Measured self-splicing fitness (ln), `GCGCAGCAAUAUUACGUCUU` : -0.65

Measured self-splicing fitness (ln), `GUGCAGCAAUAUUACGGAUU` : -1.66

###

experiment: self-splicing fitness, log relative to wild type (ln ratio); higher = more splicing; Tetrahymena group I intron in knt gene, E. coli kanamycin selection, DiMSum; sequences stand for … in CUCUCU…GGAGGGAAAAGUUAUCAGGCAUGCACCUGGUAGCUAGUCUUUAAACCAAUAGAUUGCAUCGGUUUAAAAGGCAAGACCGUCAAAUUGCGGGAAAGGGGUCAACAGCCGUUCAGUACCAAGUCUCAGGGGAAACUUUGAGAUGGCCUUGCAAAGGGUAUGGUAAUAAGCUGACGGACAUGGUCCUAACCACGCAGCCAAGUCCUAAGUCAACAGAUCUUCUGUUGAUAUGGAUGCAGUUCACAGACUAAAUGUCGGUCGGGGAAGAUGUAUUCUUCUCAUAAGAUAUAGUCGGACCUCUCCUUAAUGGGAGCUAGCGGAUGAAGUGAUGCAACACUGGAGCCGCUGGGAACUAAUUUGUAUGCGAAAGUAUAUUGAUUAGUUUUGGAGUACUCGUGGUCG; conditions: 30 °C
# self-splicing fitness (ln) values compiled below
Lab note: jot down the number only; don't add units.

# SEQ_STRING, QUANTITATIVE_READOUT
records = [
    ("CUCAAGCAAUAUUACGGUCU", -3.13),
    ("UUCCAGCAAUAUUACGUGAG", 0.114),
    ("UGUCAGCAAUAUUACGUGCA", -0.626),
]

Measured self-splicing fitness (ln), `AUGAAGCAAUAUUACGUCCU` : -0.113

Measured self-splicing fitness (ln), `AGUUAGCAAUAUUACGGACG` : -0.568

Measured self-splicing fitness (ln), `GACAAGCAAUAUUACGAGAU` : -3.73

Measured self-splicing fitness (ln), `GUACAGCAAUAUUACGUGGG` : -3.76

Measured self-splicing fitness (ln), `GACUAGCAAUAUUACGAGAU` : -2.93

###

assay: self-splicing fitness, log relative to wild type (ln ratio); higher = more splicing; Tetrahymena group I intron in knt gene, E. coli kanamycin selection, DiMSum; sequences stand for … in CUCUCU…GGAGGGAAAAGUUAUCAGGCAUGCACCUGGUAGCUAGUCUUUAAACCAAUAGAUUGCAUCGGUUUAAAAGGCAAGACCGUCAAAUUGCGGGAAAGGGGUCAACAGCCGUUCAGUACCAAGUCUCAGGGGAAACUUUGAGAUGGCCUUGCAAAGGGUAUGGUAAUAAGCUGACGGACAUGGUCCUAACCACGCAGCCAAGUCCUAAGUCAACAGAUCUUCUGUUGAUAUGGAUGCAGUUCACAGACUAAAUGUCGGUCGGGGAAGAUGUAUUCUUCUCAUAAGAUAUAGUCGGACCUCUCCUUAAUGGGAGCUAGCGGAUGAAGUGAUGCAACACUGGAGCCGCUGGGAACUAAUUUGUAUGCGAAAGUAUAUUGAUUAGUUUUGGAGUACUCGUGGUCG; details: 30 °C
PARAMETER: self-splicing fitness (ln)
Lab note: jot down the number only; don't add units.

Known results for sequences:
# SEQ_STRING, QUANTITATIVE_READOUT
rows = [
    ("UGCGAGCAAUAUUACGCCUA", -2.48),
    ("CUAUAGCAAUAUUACGGACA", -2.77),
    ("UUUAAGCAAUAUUACGCAUA", -3.17),
    ("AAGAAGCAAUAUUACGACAC", -0.918),
]

Measured self-splicing fitness (ln), `CAGGAGCAAUAUUACGCGCG` : -1.45

Measured self-splicing fitness (ln), `UAACAGCAAUAUUACGAGUG` : -0.621

Measured self-splicing fitness (ln), `AUAAAGCAAUAUUACGAGUA` : -1.12

Measured self-splicing fitness (ln), `GCCUAGCAAUAUUACGUCCU` : -1.68
